# SF-268 CNS: GI50 values follow
endpointLabel: GI50

{"lineNotation": "CCN1CCC[C@H]1c1cc(O)c2c(c1OC)C[C@H]1C[C@H]3[C@H](N)C(=O)C(C(N)=O)=C(O)[C@@]3(O)C(=O)C1=C2O", "endpointLabel": "GI50", "recordedMeasurement": "70.9 nM"}
{"lineNotation": "COc1ccc2c(c1)C(=O)c1c-2n(CCCN=[N+]=[N-])c(=O)c2ccccc12", "endpointLabel": "GI50", "recordedMeasurement": "39800 nM"}
{"lineNotation": "COc1cc(/C=C/C(=O)C(=Cc2ccc(F)c(F)c2)C(=O)/C=C/c2ccc(O)c(OC)c2)ccc1O", "endpointLabel": "GI50", "recordedMeasurement": "2740 nM"}
{"lineNotation": "O=C(N[C@H](c1ccc(Cl)c(Cl)c1)C1CNC1)c1ccc2cnccc2c1", "endpointLabel": "GI50", "recordedMeasurement": "2560 nM"}
{"lineNotation": "COC(=O)[C@]12CC[C@@H](C)[C@H](C)[C@@H]1C1=CC[C@@H]3[C@@]4(C)C[C@@H](OC(=O)c5ccco5)[C@H](O)[C@@](C)(CO)[C@@H]4[C@H](O)C[C@@]3(C)[C@]1(C)CC2", "endpointLabel": "GI50", "recordedMeasurement": "3260 nM"}

Cited source: PubChem BioAssay (NCI)
